- Test system: Escherichia coli
- assayExplanation: Minimum inhibitory concentration (MIC) against Escherichia coli ATCC 25922
- Assay type: functional
- settings: Escherichia coli, ATCC 25922; read-out: MIC
readout: MIC

# compound, readout, reportedResult
data = [
    ("CN(CC(=O)O)NC(=O)C[C@H](N)/C=C(/F)CN", "MIC", "> 256 µg/mL"),
    ("CN(CC(=O)O)NC(=O)C[C@H](N)/C=C(\\F)CN", "MIC", "> 256 µg/mL"),
    ("CN(CC(=O)O)NC(=O)C[C@H](N)/C=C/CN", "MIC", "> 256 µg/mL"),
    ("CN(CC(=O)O)NC(=O)C[C@H](N)C1CC1CN (stereo not given in full)", "MIC", "> 128 µg/mL"),
    ("CN(CC(=O)O)NC(=O)C[C@H](N)C1CCCNC1 (stereo not given in full)", "MIC", "> 128 µg/mL"),
]
